Data credit: a melting point compilation (Tetko et al.; mined from patent text by program, amines drawn as free bases though some values may be those of a salt)

melting point values by entry

Reference set, count: 2
{"STRUCTURE_AS_SMILES": "Cc1cccc(NC(=O)Nc2ccc(-c3c(C(C)C)sc4ncnc(N)c34)cc2)c1", "melting point": "169 to 171 °C"}
{"STRUCTURE_AS_SMILES": "Cc1cc(SC(C)C)c(NC(=O)CCCCSc2nc3ccccc3s2)c(SC(C)C)n1", "melting point": "107 to 109 °C"}

Next up:
*Q* Field request: melting point | item: COc1cc2ncnc(N3CCc4ccc(N)cc43)c2cc1OC
*A* 215 to 218 °C

====

Below, each of the compounds is paired with its reported melting point value.

*Q* What measured melting point goes with O=C(O)c1ncn2c1CN(C(=O)N1CCCC1)c1ccccc1-2 ?
*A* 197 to 200 °C

*Q* Item: COc1cc2c(cc1O)CC(C)(C)N=C2
*A* 152 to 157 °C

*Q* Now the compound CCOC(Nc1ccc(C(=O)O)cc1)C(=O)c1ccc(Oc2ccc(Cl)c3ccccc23)cc1 (stereo unspecified)
*A* 155 to 165 °C
